- test-summary: first-order primary biodegradation rate constant k (sorption-corrected, fDis-corrected) (d-1); higher = faster biodegradation
- condition-description: river segment: Greece (EL) G_Pris; incubation temperature 19 °C
outcome-measure: first-order primary biodegradation rate constant k
Give the figure by itself; no unit, no explanation.

Some compounds with recorded first-order primary biodegradation rate constant k:
Cc1cc(Cl)ccc1OC(C)C(=O)O (stereo unspecified) [Mecoprop] | 0.0919
COc1ccc2cc([C@H](C)C(=O)O)ccc2c1 [Naproxen] | 0.102
CC(C)(Oc1ccc(Cl)cc1)C(=O)O [Clofibric acid] | 0.0358
CCN1CCCC1CNC(=O)c1cc(S(=O)(=O)CC)c(N)cc1OC (stereo unspecified) [Amisulpride] | 0.106

Which value of first-order primary biodegradation rate constant k has been reported for CCN(CC)CC(=O)Nc1c(C)cccc1C [Lidocaine] in the records? 0.00116

Entry CC[C@@H](C(N)=O)N1CCCC1=O [Levetiracetam] : reported first-order primary biodegradation rate constant k = ? 0.188

So what does the record say about first-order primary biodegradation rate constant k for NS(=O)(=O)c1cc(C(=O)O)c(NCc2ccco2)cc1Cl [Furosemide] ? 0.0968

Given the compound CC(C)NCC(O)COc1ccc(CC(N)=O)cc1 (stereo unspecified) [Atenolol] , what is its reported first-order primary biodegradation rate constant k? 0.147

Consider the compound CC(=O)NC[C@H]1CN(c2ccc(N3CCOCC3)c(F)c2)C(=O)O1 [Linezolid] and give its measured first-order primary biodegradation rate constant k. 0.308

first-order primary biodegradation rate constant k lookup needed for COCCc1ccc(OCC(O)CNC(C)C)cc1 (stereo unspecified) [Metoprolol] , thanks. 0.258

So what's the measured first-order primary biodegradation rate constant k for this one? Nc1ccc(S(=O)(=O)Nc2nccs2)cc1 [Sulfathiazole] 1.17

----------
- test-summary: first-order primary biodegradation rate constant k (sorption-corrected, fDis-corrected) (d-1); higher = faster biodegradation
- condition-description: river segment: Germany (DE) T_Pris; incubation temperature 24 °C
The threshold is inclusive: first-order primary biodegradation rate constant k of exactly 0.1 counts as True; values below receive False.

Reported first-order primary biodegradation rate constant k reaches at least 0.1 for NC(=O)c1cn(Cc2c(F)cccc2F)nn1 [Rufinamide] ? True

----------
- test-summary: first-order primary biodegradation rate constant k (sorption-corrected, fDis-corrected) (d-1); higher = faster biodegradation
- condition-description: river segment: Germany (DE) T_Pris; incubation temperature 24 °C
This section presents compounds with their documented first-order primary biodegradation rate constant k values.
Write the number on its own, no unit after it.

Solved entries:
COC(=O)c1ccc(O)cc1 | 0.1
COc1cc(Cc2cnc(N)nc2N)cc(OC)c1OC | 0.612
O=[N+]([O-])c1ccc(Cc2ccncc2)cc1 | 0.446
C=CCOc1ccccc1OCC(O)CNC(C)C (stereo not given) | 0.0369
CC(C)N(C(=O)CCl)c1ccccc1 | 0.308

I'd like to know its first-order primary biodegradation rate constant k. The compound in question is `Nc1ccc(S(=O)(=O)Nc2nccs2)cc1` 0.259

Entry under review: `CCCOC(=O)c1ccc(O)cc1` . Reported first-order primary biodegradation rate constant k? 1.42

Sample CCN1CCCC1CNC(=O)c1cc(S(=O)(=O)CC)c(N)cc1OC (stereo not given) [Amisulpride] — what was its first-order primary biodegradation rate constant k? 0.0301

# lookup: first-order primary biodegradation rate constant k of CN(C)CCN1C(=O)c2ccccc2N(C)c2ccccc21 [Dibenzepin] 0.127

Given the entry CC(C)NCC(O)COc1ccc(CC(N)=O)cc1 (stereo not given) , report its measured first-order primary biodegradation rate constant k. 0.3

Can you look up the measured first-order primary biodegradation rate constant k of `CC(C)(C#N)c1cc(Cn2cncn2)cc(C(C)(C)C#N)c1` for me? 0.0157

Fill in: first-order primary biodegradation rate constant k of CC(C)(Oc1ccc(CCNC(=O)c2ccc(Cl)cc2)cc1)C(=O)O [Bezafibrate] is ___ 0.123

Could you tell me which first-order primary biodegradation rate constant k is on file for CC(C)NCC(O)COc1ccc(COCCOC(C)C)cc1 (stereo not given) ? 0.336

Name the recorded first-order primary biodegradation rate constant k for `Nc1nc(NC2CC2)c2ncn([C@H]3C=C[C@@H](CO)C3)c2n1` . 1.37

So what's the measured first-order primary biodegradation rate constant k for this one? `CCCCC(=O)N(Cc1ccc(-c2ccccc2-c2nnn[nH]2)cc1)[C@H](C(=O)O)C(C)C` 0.204

Could you tell me which first-order primary biodegradation rate constant k is on file for `C/C(=N\C#N)N(C)Cc1ccc(Cl)nc1` ? 0.0162

Would you kindly share the measured first-order primary biodegradation rate constant k for `Cc1cc(O)cc(C)c1Cl` ? 1.68

Give its first-order primary biodegradation rate constant k value. Item: NS(=O)(=O)c1cc(C(=O)O)c(NCc2ccco2)cc1Cl [Furosemide] 0.0275

Item under review: `Cc1ccc(S(=O)(=O)O)cc1` . Reported first-order primary biodegradation rate constant k? 0.422

Quick check: first-order primary biodegradation rate constant k of `COC(=O)Nc1nc2ccccc2[nH]1` ? 0.00648
